Data origin, for the record: PubChem BioAssay (NCI)

Test system: ACHN renal
Experiment: NCI-60 one-dose screen, 48 h
Conditions: 10 µM unless noted
This is part of a sample that, as a whole, favours compounds with a hit. Of some 83,000 tested, about 20% had one in any assay. Calls of active or inactive are those of the source. The calls were made as follows: active = growth percent below 10; inactive = the rest.
Response enum: YES for active, NO for inactive

INSERT INTO assay_data (compound, assignedcategory) VALUES
  ('NC(N)=NC(N)=Nc1cc2ccccc2c2ccccc12', 'NO'),
  ('CC[C@]12C=CCN3CC[C@@]4(c5ccc(OC)cc5N(C)[C@H]4[C@@](O)(C(=O)OC)[C@@H]1OC(=O)CCC(=O)O[C@H]1CC[C@H]4[C@@H]5CC[C@H]6CC(=O)CC[C@]6(C)[C@H]5CC[C@]14C)[C@@H]32', 'NO'),
  ('CCC1S/C(=N\N=C(/C)c2ccc[nH]2)N(c2ccccc2)C1=O (stereo not drawn)', 'NO');

Prompt line: Assay result, entry Cc1c(C(=O)Nc2nc3ccccc3[nH]2)cnn1-c1ccccn1 — outcome?
Response line: NO

Prompt line: Next record, please: CNCc1cccc2c1OCCOCCOCCN(CCN1CCOCC1)S(=O)(=O)c1ccc(cc1)-c1cnc(N)c(n1)C(=O)N2
Response line: NO

Prompt line: Next record, please: C=C1C(=O)O[C@H]2[C@H]1CC/C(COC(=O)c1cc3ccccc3o1)=C\CC[C@@]1(C)O[C@@H]21
Response line: YES

Prompt line: Next record, please: Nc1c(C(=O)Nc2ccccn2)sc2nc3c(cc12)CCCCCC3
Response line: NO

Prompt line: Next record, please: CCOC(=O)C(=Cc1c(-c2ccccc2)[nH]c2ccccc12)C(=O)OCC
Response line: NO

---

Test system: SK-MEL-28 melanoma
Experiment: NCI-60 one-dose screen, 48 h (100 = growth as untreated, 0 = no growth, -100 = all killed)
Details: 10 µM unless noted
About 83,000 compounds went through this panel and 20% of them were active in at least one assay; those are over-represented in the sample as a whole.
# reported growth; entries follow
A number alone suffices; assume %.

Completed entries (count: 2):
INSERT INTO assay_data (compound, measurename, resultvalue) VALUES
  ('CCN(CC)c1ccc2c(c1)Oc1nc(N)c(C#N)c(N)c1C2Sc1ccc(OC)cc1 (centres undefined)', 'growth', 29.3),
  ('O=C1[C@@H](OS(=O)(=O)CC(F)(F)F)[C@H](c2ccc(F)cn2)N1c1cc2c3ccccc3ccc2c2ccccc12', 'growth', 79.7);

// next entry
Prompt line: Quick one: growth for C#Cc1ccccc1NC(=O)c1sc2nc3c(cc2c1N)CCCCCC3 ?
Response line: 91.1

---

Test system: MDA-MB-231 breast
Assay: NCI-60 one-dose screen, 48 h (100 = growth as untreated, 0 = no growth, -100 = all killed)
Conditions: 10 µM unless noted
The panel holds about 83,000 compounds, 20% with a hit somewhere; the sample as a whole holds those more often.
# reported growth; entries follow
A number alone suffices; assume %.

Completed entries (count: 5):
INSERT INTO results (compound, systemtested, measurename, readoutunits, resultvalue) VALUES
  ('Nc1cc(N)c(S(=O)(=O)O)cc1N=Nc1cc([N+](=O)[O-])ccc1O', 'MDA-MB-231 breast', 'growth', '%', 103),
  ('CC1CCCN(CCCCCOc2ccc3oc4ccccc4c(=O)c3c2)C1 (stereo unspecified)', 'MDA-MB-231 breast', 'growth', '%', 67.8),
  ('OCCNc1nc(NCCO)nc(Nc2ccc(C3=NN(c4ccc(Cl)cc4)C(c4ccc(Cl)cc4)C3)cc2)n1 (stereo unspecified)', 'MDA-MB-231 breast', 'growth', '%', 63.7),
  ('S=C(Nc1ccc(Cl)cc1)c1ccccn1', 'MDA-MB-231 breast', 'growth', '%', 93.1),
  ('C(=C\c1cn(-c2ccccc2)nc1-c1ccccc1)/c1nnc(-c2c[nH]c3ccccc23)o1', 'MDA-MB-231 breast', 'growth', '%', 9.62);

Prompt line: Give growth (MDA-MB-231 breast) of the following compound: COc1ccc(NC(=O)Nc2ccc(Nc3nc(C)cc(Nc4ccc(C)cc4)n3)cc2)cc1
Response line: -75.8

Prompt line: Next record, please: COC(=O)/C=C/c1cc(OC)c2c(c1)[C@@H](C(=O)OC)[C@H](c1ccc(OC)c(OC)c1)O2
Response line: 53.4

Prompt line: Next record, please: C=CCn1c(SCC(=O)Nc2ccc(C(=O)/C=C/c3ccc(Cl)cc3)cc2)nnc1-c1cc(OC)c(OC)c(OC)c1
Response line: 80.5

Prompt line: Next record, please: O=C(Nc1cc(=O)[nH]c(=O)[nH]1)C(Cl)Cl
Response line: 102

Prompt line: Next record, please: CCCCCOC(=O)c1ccccc1O
Response line: 110
